# System: CFTR ΔF508 mutant (Homo sapiens, UniProt P13569, DEL508-508)
# Construct: expressed in transfected cells; host or cells: CFBE41o- cells, adenoviral transduction
# Sequence (P13569 with tags, fused parts or gaps DEL508-508): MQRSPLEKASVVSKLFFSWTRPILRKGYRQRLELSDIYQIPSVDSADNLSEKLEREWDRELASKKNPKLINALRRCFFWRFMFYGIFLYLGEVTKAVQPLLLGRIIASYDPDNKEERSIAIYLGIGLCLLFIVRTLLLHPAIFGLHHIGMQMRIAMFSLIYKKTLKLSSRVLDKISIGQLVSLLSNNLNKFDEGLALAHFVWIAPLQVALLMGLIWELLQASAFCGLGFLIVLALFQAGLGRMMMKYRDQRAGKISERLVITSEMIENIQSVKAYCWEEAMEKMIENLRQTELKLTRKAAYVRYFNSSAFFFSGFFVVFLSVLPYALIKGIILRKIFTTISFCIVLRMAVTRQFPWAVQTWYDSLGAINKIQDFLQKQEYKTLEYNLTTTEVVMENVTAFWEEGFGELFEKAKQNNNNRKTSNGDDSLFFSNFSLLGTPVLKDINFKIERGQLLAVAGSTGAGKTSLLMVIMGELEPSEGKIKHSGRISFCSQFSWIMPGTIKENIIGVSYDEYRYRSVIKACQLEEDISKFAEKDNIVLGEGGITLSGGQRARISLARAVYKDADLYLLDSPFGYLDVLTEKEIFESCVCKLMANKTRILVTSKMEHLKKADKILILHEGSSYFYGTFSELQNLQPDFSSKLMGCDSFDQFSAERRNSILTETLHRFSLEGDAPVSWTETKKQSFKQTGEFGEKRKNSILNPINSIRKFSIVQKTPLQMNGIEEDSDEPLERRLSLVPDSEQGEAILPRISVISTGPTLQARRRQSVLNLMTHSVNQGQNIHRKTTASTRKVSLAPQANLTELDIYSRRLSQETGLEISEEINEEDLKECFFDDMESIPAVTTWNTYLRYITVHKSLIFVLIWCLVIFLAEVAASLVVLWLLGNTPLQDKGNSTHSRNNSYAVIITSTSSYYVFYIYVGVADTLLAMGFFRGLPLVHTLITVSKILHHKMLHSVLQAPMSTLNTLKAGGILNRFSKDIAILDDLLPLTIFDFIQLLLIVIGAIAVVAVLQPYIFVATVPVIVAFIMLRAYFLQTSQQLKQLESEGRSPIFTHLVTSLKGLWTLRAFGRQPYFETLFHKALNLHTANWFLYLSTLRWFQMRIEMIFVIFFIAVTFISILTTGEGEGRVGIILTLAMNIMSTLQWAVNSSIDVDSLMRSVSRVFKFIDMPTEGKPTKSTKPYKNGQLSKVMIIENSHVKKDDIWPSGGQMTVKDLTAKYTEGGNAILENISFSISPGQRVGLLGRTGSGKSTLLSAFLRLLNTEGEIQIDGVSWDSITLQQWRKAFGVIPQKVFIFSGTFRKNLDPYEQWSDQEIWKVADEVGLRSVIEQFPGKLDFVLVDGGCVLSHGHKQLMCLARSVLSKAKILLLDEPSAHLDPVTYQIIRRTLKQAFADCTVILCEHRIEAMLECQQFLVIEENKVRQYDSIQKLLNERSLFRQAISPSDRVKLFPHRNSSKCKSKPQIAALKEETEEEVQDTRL
# Assay Procedure: YFP-halide influx assay for the CFTR-ΔF508 mutation (CFBE41o- cells)
# Assay type: cell-based
# Experimental Setup: forskolin 10.67 μM
Metric Name: % Activation (%)

Worked examples follow.
Compound	% Activation, %
Nc1cc(S(=O)(=O)c2ccc(C(F)(F)F)cc2)cnc1C(=O)NCCC(F)(F)F	96.7
CC(CC(N)=O)NC(=O)c1ncc(S(=O)(=O)c2ccc(OC(F)(F)F)cc2)cc1N (centres unmarked)	37.6
CC(C)OC[C@H](O)CNC(=O)c1ncc(S(=O)(=O)c2ccc(C(F)(F)F)cc2)cc1N	102.0
Nc1cc(S(=O)(=O)N2CCCC(F)C2)cnc1C(=O)NCC(O)C(F)(F)F (centres unmarked)	95.7
CC(C)C(CO)NC(=O)c1ncc(S(=O)(=O)c2ccc(OC(F)(F)F)cc2)cc1N (centres unmarked)	101.0
Nc1cc(S(=O)(=O)c2ccc(C(F)(F)F)cc2)cnc1C(=O)N1CC(C(F)(F)F)C1	101.2

I: Nc1cc(S(=O)(=O)c2ccc(OC(F)(F)F)cc2)cnc1C(=O)NNC(=O)CO
II: C[C@H](O)CNC(=O)c1ncc(S(=O)(=O)N2CCCC2CO)cc1N (mixture of isomers)
Given the listed records, identify the one among I and II with higher % Activation. Your choice should be expressed through its label.
I

I: C[C@H](O)CNC(=O)c1ncc(S(=O)(=O)N(C)C2CCC2)cc1N
II: CN1CCC(O)(CNC(=O)c2ncc(S(=O)(=O)c3ccc(C(F)(F)F)cc3)cc2N)CC1
Given the listed records, identify the one among I and II with higher % Activation. Your choice should be expressed through its label.
I

----------
# System: CFTR G551D mutant (Homo sapiens, UniProt P13569, G551D)
# Sequence (P13569 whole entry G551D): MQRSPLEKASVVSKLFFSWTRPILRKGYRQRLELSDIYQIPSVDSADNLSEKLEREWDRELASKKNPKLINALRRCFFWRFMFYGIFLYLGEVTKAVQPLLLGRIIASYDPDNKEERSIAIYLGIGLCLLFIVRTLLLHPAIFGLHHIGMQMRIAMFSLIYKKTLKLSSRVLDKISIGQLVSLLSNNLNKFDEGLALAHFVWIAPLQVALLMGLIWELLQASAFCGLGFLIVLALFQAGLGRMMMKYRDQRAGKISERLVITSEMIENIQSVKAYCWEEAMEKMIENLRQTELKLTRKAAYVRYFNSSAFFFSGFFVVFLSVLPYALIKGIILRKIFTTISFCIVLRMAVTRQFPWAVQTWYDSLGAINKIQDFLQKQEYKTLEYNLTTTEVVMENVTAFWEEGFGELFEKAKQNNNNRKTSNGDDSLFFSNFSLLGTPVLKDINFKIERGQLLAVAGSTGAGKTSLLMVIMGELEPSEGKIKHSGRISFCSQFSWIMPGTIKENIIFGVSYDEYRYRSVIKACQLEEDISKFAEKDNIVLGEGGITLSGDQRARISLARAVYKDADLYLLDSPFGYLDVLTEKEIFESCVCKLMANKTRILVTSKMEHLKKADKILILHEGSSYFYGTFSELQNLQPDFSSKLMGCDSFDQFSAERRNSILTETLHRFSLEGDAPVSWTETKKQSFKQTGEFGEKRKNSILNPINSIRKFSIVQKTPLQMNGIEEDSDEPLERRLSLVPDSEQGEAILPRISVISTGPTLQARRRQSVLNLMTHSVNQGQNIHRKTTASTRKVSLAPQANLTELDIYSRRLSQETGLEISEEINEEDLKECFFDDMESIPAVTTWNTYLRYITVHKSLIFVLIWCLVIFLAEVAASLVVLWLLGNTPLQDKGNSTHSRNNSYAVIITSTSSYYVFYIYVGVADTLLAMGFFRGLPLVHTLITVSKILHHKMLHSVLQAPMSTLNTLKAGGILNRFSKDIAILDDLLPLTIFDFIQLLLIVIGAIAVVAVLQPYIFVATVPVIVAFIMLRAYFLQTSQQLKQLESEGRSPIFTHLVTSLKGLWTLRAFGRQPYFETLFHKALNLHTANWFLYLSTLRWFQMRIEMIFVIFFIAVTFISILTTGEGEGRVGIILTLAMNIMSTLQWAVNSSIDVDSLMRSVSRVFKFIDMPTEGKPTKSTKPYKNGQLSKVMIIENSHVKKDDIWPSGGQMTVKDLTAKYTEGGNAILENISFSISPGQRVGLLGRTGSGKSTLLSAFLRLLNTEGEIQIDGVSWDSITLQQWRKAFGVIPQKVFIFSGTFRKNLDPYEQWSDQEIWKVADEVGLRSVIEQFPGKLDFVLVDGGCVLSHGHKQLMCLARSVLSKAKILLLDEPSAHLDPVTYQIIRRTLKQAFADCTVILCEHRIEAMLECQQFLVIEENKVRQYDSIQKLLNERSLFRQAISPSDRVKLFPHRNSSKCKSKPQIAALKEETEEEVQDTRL
# Assay Procedure: YFP-halide influx assay for the CFTR-G551D mutation (HEK293 cells)
# Experimental Setup: forskolin 10.67 μM
pEC50: −log10 of the molar value.
Metric Name: pEC50

Molecule	Metric Name	Measured Result
CC(C)CC(O)CNC(=O)c1ncc(S(=O)(=O)c2ccc(OC(F)(F)F)cc2)cc1N (stereo not shown)	pEC50	6.00
CCOCC1(CNC(=O)c2ncc(S(=O)(=O)c3ccc(OC(F)(F)F)cc3)cc2N)CCC1	pEC50	6.38

a: Nc1cc(S(=O)(=O)N2CCC(OC(F)(F)F)CC2)cnc1C(=O)NCC(O)C(F)(F)F (stereo not shown)
b: Nc1cc(S(=O)(=O)c2ccc(OC(F)(F)F)cc2)cnc1C(=O)NC[C@H](O)C(F)(F)F
// returns a or b , whichever has the lower pEC50 Your choice should be expressed through its label.
a
(a: 6.12, b: 6.50)

----------
# System: CFTR-R117H (Homo sapiens, UniProt P13569, R117H)
# Construct: expressed in transfected cells
# Sequence (P13569 whole entry R117H): as the sequence (P13569 whole entry G551D) above, with R117H, D551G counted along it
# Assay Procedure: YFP-halide influx assay for the CFTR-R117H
# Assay type: cell-based
Metric Name: % Activation (%)

Molecule	% Activation / %
Nc1cc(S(=O)(=O)c2ccccc2OC(F)(F)F)cnc1C(=O)NC[C@@H](O)C(F)(F)F [Compound 81]	113.2
Nc1cc(S(=O)(=O)N2CCC(C(F)(F)F)CC2)cnc1C(=O)NCC(O)C(F)(F)F (centres unmarked) [Compound 95]	88.62
Nc1cc(S(=O)(=O)c2ccc(C(F)(F)F)cc2)cnc1C(=O)NCCO [Compound 217]	92.1
Nc1cc(S(=O)(=O)c2ccc(OC(F)(F)F)cc2)cnc1C(=O)N1CC(F)(F)C1 [Compound 40]	86.71
COCC(O)CNC(=O)c1ncc(S(=O)(=O)c2ccc(OC(F)(F)F)cc2)cc1N (centres unmarked) [Compound 3]	102.0
CCOCC1(CNC(=O)c2ncc(S(=O)(=O)c3ccc(OC(F)(F)F)cc3)cc2N)CCC1 [Compound 118]	90.7
CC(C)(O)C1CN(C(=O)c2ncc(S(=O)(=O)c3ccc(C(F)(F)F)cc3)cc2N)C1 [Compound 165]	94.2
Nc1cc(S(=O)(=O)c2ccc(OC(F)(F)F)cc2)cnc1C(=O)N1CC(OCC(F)F)C1 [Compound 119]	89.9

----------
# System: CFTR ΔF508 mutant (Homo sapiens, UniProt P13569, DEL508-508)
# Construct: expressed in transfected cells; host or cells: CFBE41o- cells, adenoviral transduction
# Assay Procedure: YFP-halide influx assay for the CFTR-ΔF508 mutation (CFBE41o- cells)
# Assay type: cell-based
# Experimental Setup: forskolin 10.67 μM
Metric Name: % Activation (%)

Compound	% Activation, %
CC(C)COCC(O)CNC(=O)c1ncc(S(=O)(=O)c2ccc(C(F)(F)F)cc2)cc1N (centres unmarked) [Compound 166]	111.7
Nc1cc(S(=O)(=O)c2ccc(OC(F)(F)F)cc2)cnc1C(=O)NCC1CCOCC1 [Compound 129]	74.9
Nc1cc(S(=O)(=O)c2ccc(OC(F)(F)F)cc2)cnc1C(=O)NCCCCO [Compound 45]	93.6
CC(C)NC(=O)CNC(=O)c1ncc(S(=O)(=O)c2ccc(C(F)(F)F)cc2F)cc1N [Compound 113]	101.9
CC(C)(O)CNC(=O)c1ncc(S(=O)(=O)c2ccc(C(F)(F)F)cc2)cc1N [Compound 11]	113.5
Nc1cc(S(=O)(=O)c2ccc(OC(F)(F)F)cc2)cnc1C(=O)Nc1cc[nH]n1 [Compound 291]	98.2
Nc1cc(S(=O)(=O)c2ccc(OC(F)(F)F)cc2)cnc1C(=O)NCCO [Compound 14]	108.1
CC(C)NC(=O)CNC(=O)c1ncc(S(=O)(=O)c2ccc(C(F)(F)F)cc2)cc1N [Compound 104]	100.8

----------
# System: CFTR-G178R (Homo sapiens, UniProt P13569, G178R)
# Construct: expressed in transfected cells
# Sequence (P13569 whole entry G178R): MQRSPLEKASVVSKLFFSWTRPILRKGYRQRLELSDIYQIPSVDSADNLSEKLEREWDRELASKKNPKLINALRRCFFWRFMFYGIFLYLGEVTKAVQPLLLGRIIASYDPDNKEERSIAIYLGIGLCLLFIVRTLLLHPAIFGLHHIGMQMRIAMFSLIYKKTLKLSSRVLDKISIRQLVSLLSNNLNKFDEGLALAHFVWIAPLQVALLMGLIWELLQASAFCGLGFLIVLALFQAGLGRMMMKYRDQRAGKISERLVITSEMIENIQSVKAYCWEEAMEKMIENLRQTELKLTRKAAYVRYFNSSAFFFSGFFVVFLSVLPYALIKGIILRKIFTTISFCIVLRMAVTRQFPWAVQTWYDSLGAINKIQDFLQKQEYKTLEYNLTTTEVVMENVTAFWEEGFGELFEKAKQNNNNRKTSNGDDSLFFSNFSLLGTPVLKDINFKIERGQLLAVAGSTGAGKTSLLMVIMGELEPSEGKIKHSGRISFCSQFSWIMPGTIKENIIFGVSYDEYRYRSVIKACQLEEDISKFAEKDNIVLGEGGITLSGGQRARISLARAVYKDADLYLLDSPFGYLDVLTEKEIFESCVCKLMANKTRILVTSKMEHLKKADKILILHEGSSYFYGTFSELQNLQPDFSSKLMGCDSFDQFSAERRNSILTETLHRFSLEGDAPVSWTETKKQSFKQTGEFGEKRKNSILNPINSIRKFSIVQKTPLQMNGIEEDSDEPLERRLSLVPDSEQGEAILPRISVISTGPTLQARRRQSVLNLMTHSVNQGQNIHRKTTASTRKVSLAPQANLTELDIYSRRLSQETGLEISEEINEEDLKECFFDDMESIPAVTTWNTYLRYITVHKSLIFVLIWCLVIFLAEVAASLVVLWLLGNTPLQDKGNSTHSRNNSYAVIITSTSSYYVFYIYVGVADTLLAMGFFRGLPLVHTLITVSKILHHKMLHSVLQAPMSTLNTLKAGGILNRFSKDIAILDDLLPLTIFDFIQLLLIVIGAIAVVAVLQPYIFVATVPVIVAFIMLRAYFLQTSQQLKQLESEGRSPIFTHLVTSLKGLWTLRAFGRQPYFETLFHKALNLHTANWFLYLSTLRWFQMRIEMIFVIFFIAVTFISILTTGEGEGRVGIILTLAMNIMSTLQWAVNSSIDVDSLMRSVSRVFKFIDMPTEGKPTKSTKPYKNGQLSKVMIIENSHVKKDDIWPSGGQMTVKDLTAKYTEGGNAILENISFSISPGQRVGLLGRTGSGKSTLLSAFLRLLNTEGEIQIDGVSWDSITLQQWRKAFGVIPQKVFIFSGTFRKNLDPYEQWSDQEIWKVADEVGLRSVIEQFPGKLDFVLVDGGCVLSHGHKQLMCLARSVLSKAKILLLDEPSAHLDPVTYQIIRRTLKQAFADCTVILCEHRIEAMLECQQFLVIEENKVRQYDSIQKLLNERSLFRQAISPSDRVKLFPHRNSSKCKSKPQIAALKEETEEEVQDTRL
# Assay Procedure: YFP-halide influx assay for the CFTR-G178R
# Assay type: cell-based
Metric Name: % Activation (%)

Nc1cc(S(=O)(=O)c2ccc(C(F)(F)F)cc2)cnc1C(=O)NCCO 63.9
Nc1cc(S(=O)(=O)c2ccc(C(F)(F)F)cc2)cnc1C(=O)NCC(F)(F)CO 84.5
Nc1cc(S(=O)(=O)c2ccc(F)cc2)cnc1C(=O)N1CC(O)(C(F)(F)F)C1 79.1

----------
# System: CFTR ΔF508 mutant (Homo sapiens, UniProt P13569, DEL508-508)
# Construct: expressed in transfected cells; host or cells: CFBE41o- cells, adenoviral transduction
# Assay Procedure: YFP-halide influx assay for the CFTR-ΔF508 mutation (CFBE41o- cells)
# Assay type: cell-based
# Experimental Setup: forskolin 10.67 μM
# Description: The YFP halide influx assay measured the functionality of the cystic fibrosis Transmembrane Conductance regulator (CFTR) channels in the cystic fibrosis bronchial epithelium cell line CFBE41o-. The assay was used to evaluate the capacity of compounds to increase the open probability of existing CFTR channels in the membrane. […] The I-induced quenching of fluorescence was recorded on an immediately after injection of iodide for 2 minutes on an FDSS/μCell (Hamamatsu). […]
Metric Name: % Activation (%)

Compound	System	% Activation, %
Nc1cc(S(=O)(=O)c2ccc(C(F)(F)F)cc2)cnc1C(=O)NCCO	CFTR ΔF508 mutant (Homo sapiens, UniProt P13569, DEL508-508)	103.4
Nc1cc(S(=O)(=O)c2ccc(OC(F)(F)F)cc2)cnc1C(=O)N1CC2(CCCOC2)C1	CFTR ΔF508 mutant (Homo sapiens, UniProt P13569, DEL508-508)	102
Nc1cc(S(=O)(=O)c2ccc(OC(F)(F)F)cc2)cnc1C(=O)N1CCC(O)C1 (centres unmarked)	CFTR ΔF508 mutant (Homo sapiens, UniProt P13569, DEL508-508)	92.1
CN(Cc1ccc(C(F)(F)F)cc1)S(=O)(=O)c1cnc(C(=O)NCC(O)C(F)(F)F)c(N)c1 (centres unmarked)	CFTR ΔF508 mutant (Homo sapiens, UniProt P13569, DEL508-508)	98.4
CC(C)OCC(O)CNC(=O)c1ncc(S(=O)(=O)c2ccc(C(F)(F)F)cc2F)cc1N (centres unmarked)	CFTR ΔF508 mutant (Homo sapiens, UniProt P13569, DEL508-508)	105.9
Nc1cc(S(=O)(=O)c2ccc(C(F)(F)F)cc2)cnc1C(=O)N1CC(OCC(F)F)C1	CFTR ΔF508 mutant (Homo sapiens, UniProt P13569, DEL508-508)	103.3
Nc1cc(S(=O)(=O)c2ccc(OC(F)(F)F)cc2)cnc1C(=O)NC[C@H](O)C(F)(F)F	CFTR ΔF508 mutant (Homo sapiens, UniProt P13569, DEL508-508)	105.3
Nc1cc(S(=O)(=O)c2ccc(OC(F)(F)F)cc2)cnc1C(=O)NC[C@@H](O)C(F)(F)F	CFTR ΔF508 mutant (Homo sapiens, UniProt P13569, DEL508-508)	106.4
